Data provenance is PubChem BioAssay (NCI).

Test system: MDA-MB-231 breast
test: NCI-60 one-dose screen, 48 h
conditions-used: 10 µM unless noted
The panel holds about 83,000 compounds, 20% with a hit somewhere; the sample as a whole holds those more often. The source made the active and inactive calls. The calls were made as follows: active = growth percent below 10; inactive = the rest.
Possible outcomes: class 1 for active, class 0 for inactive

INSERT INTO assay_data (compound, measured_target, answer_label) VALUES
  ('COc1cc(NC(=O)Nc2cnc(Nc3ccc(N4CCOCC4)cc3)nc2Oc2ccc(C(F)(F)F)cc2)cc(OC)c1', 'MDA-MB-231 breast', 'class 0'),
  ('Cc1cc(C)cc(Nc2nccc(-c3c(-c4ccc(F)cc4)ncn3C3CCNCC3)n2)c1', 'MDA-MB-231 breast', 'class 1'),
  ('CC1(C)CC[C@]2(c3nnc(-c4ccncc4)o3)CC[C@]3(C)C(=CC[C@@H]4[C@@]5(C)CCC(=O)C(C)(C)[C@@H]5CC[C@]43C)[C@@H]2C1', 'MDA-MB-231 breast', 'class 0'),
  ('C=C(C)[C@@H]1CC[C@]2(C(=O)N=C=S)CC[C@]3(C)[C@H](CC[C@@H]4[C@@]5(C)CCC(=O)C(C)(C)[C@@H]5CC[C@]43C)[C@@H]12', 'MDA-MB-231 breast', 'class 0'),
  ('c1ccc(-c2cn3ccnc3c(-c3ccc4c(c3)ncn4C3CCCCC3)n2)cc1', 'MDA-MB-231 breast', 'class 0'),
  ('Cc1cc(C)nc(NS(=O)(=O)c2ccc(Nc3ccc4c5c(n(CCCN(C)C)c(=O)c4c3)-c3ccccc3C5=O)cc2)n1', 'MDA-MB-231 breast', 'class 0'),
  ('COc1ccc(Sc2[nH]c(C(C)=O)c3ccccc23)cc1', 'MDA-MB-231 breast', 'class 0'),
  ('C=C1C(=O)O[C@H]2[C@H]1CC/C(COC(=O)c1cc3ccccc3o1)=C\CC[C@@]1(C)O[C@@H]21', 'MDA-MB-231 breast', 'class 1'),
  ('COc1ccc([C@H]2[C@@H](F)C(=O)N2c2cc(OC)c(OC)c(OC)c2)cc1F', 'MDA-MB-231 breast', 'class 0'),
  ('COc1cc(F)c(-c2nc3c(C)cccc3n2Cc2c(F)cccc2F)c(F)c1', 'MDA-MB-231 breast', 'class 0'),
  ('COc1cc(NC(=O)c2cc(O)c(C/C=C(\C)CCC=C(C)C)c(O)c2)cc2c1O[C@]1(C)CC[C@@H](O)C(C)(C)[C@H]1C2', 'MDA-MB-231 breast', 'class 1'),
  ('CCCCCCCc1n(Cc2ccc3ccccc3c2)c2ccccc2[n+]1Cc1ccc2ccccc2c1', 'MDA-MB-231 breast', 'class 1'),
  ('C#Cc1ccccc1NC(=O)c1sc2nc3c(cc2c1N)CCCCC3', 'MDA-MB-231 breast', 'class 0'),
  ('C#C[C@@]1(O)[C@@H](CO)O[C@@H](n2cc(I)c3c(N)ncnc32)[C@@H]1O', 'MDA-MB-231 breast', 'class 1'),
  ('N#Cc1c(-c2ccc(F)cc2)nc(N/N=C/c2c[nH]c3ccccc23)nc1N1CCOCC1', 'MDA-MB-231 breast', 'class 0'),
  ('O=C1NN(c2ccccc2)C(c2ccc(Cl)cc2)N2CCC[C@H]12 (some centres not stated)', 'MDA-MB-231 breast', 'class 0'),
  ('COc1cc2nc3c(=O)n(CCN(C)C)cnn3c(=O)c2cc1OC', 'MDA-MB-231 breast', 'class 0'),
  ('C[C@H]1[C@H](C)CC[C@]2(C(=O)OCCOCCOCC[P+](c3ccccc3)(c3ccccc3)c3ccccc3)CC[C@]3(C)C(=CC[C@@H]4[C@@]5(C)CC[C@H](OC(=O)C(Cl)Cl)C(C)(C)[C@@H]5CC[C@]43C)[C@H]12', 'MDA-MB-231 breast', 'class 1'),
  ('O=C1CC(c2ccc(O)c(O)c2)Oc2cc(O)c([C@@H]3O[C@H](CO)[C@@H](O)[C@H](O)[C@H]3O)c(O)c21 (some centres not stated)', 'MDA-MB-231 breast', 'class 0'),
  ('c1ccc(Sc2ncccn2)nc1', 'MDA-MB-231 breast', 'class 0'),
  ('Nc1ccccc1NC(=O)c1ccc(CSc2nc(N3CCOCC3)c3cccn3n2)cc1', 'MDA-MB-231 breast', 'class 0'),
  ('Cc1cc(Nc2nc(SCc3ccc(C(=O)Nc4ccc(F)cc4N)cc3)nn3cccc23)n[nH]1', 'MDA-MB-231 breast', 'class 0');
